# TESTED SYSTEM: human ether-à-go-go-related gene (hERG) potassium channel (human);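 also: peak tail current of the secondary pulse compared with the same well before compound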
# Sequence (Q12809 whole entry, looked up): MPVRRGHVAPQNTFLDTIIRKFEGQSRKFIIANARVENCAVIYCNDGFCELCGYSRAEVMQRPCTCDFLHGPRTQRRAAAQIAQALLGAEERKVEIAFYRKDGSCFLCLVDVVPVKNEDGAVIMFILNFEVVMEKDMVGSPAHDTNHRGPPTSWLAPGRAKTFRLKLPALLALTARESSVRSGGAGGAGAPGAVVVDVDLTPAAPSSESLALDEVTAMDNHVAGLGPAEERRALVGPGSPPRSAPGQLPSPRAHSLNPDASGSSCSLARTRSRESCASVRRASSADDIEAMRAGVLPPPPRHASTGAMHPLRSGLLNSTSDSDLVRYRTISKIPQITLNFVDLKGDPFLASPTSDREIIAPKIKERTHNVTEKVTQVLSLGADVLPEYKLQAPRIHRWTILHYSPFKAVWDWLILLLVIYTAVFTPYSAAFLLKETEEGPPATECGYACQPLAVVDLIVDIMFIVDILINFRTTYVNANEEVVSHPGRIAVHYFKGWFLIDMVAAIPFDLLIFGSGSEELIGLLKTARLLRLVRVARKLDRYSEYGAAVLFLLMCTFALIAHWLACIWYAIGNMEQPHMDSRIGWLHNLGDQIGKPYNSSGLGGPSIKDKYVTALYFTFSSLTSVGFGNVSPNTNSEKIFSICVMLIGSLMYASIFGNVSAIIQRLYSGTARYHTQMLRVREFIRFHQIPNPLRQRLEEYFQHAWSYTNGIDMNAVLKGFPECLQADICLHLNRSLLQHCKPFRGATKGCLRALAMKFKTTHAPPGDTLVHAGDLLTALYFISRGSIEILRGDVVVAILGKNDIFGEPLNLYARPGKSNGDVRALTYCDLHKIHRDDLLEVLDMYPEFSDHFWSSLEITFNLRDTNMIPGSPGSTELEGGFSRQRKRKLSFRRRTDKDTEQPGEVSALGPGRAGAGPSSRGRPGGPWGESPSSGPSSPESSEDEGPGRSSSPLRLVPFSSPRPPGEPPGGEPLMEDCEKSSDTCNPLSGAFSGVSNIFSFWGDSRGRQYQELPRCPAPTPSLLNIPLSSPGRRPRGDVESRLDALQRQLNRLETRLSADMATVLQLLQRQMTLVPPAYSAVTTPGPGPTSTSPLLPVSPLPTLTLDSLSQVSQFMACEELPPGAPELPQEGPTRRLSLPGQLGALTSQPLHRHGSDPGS
# PROCEDURE DETAILS: primary screen, population patch clamp on CHO cells stably expressing hERG; higher = less effect of the substance
Screen size: about 310,000 compounds; about 14,000 (4.5%) showed an effect of 50% or more. The effect is printed as a negative number. Only a selection was taken, and strong results are over-represented in it overall.
The threshold is inclusive: hERG current change (%, negative = inhibition) at 10uM of exactly -50% counts as True; values below receive False.

Past entries and their recorded results:
compound_structure_string=CCc1nn(CC(=O)N2CCN(c3cc(C)ccc3C)CC2)c(=O)c2cc3occc3n12 assigned_label=True
compound_structure_string=O=C(CCCn1ncn2c(cc3occc32)c1=O)NCc1cccc(Cl)c1 assigned_label=False
compound_structure_string=CCOc1ccc(CNC(=O)CCCn2nc(CC)n3c(cc4occc43)c2=O)cc1 assigned_label=True
compound_structure_string=CCc1nn(CCCC(=O)NCc2ccc(OC(C)C)cc2)c(=O)c2cc3occc3n12 assigned_label=False

Field: next compound
Request: Quick check: does Cc1ccccc1CNC(=O)CCCn1ncn2c(cc3occc32)c1=O have hERG current change (%, negative = inhibition) at 10uM greater than or equal to -50%?
Result: True

* * *

# TESTED SYSTEM: human ether-à-go-go-related gene (hERG) potassium channel (human);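 also: peak tail current of the secondary pulse compared with the same well before compound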
# PROCEDURE DETAILS: primary screen, population patch clamp on CHO cells stably expressing hERG; higher = less effect of the substance
Hit rate of the full screen: of about 310,000 compounds, about 14,000 (4.5%) showed an effect of 50% or more. Effects have a minus sign here. Only a selection was taken, and strong results are over-represented in it overall.
ASSAY METRIC: hERG current change (%, negative = inhibition) at 10uM
Please answer in the form of a number followed by its unit of measurement.

Below, each entry is followed by its recorded hERG current change (%, negative = inhibition) at 10uM result.
compound="Cc1ccc(C(C(=O)NC2CCCCC2)N(C(=O)CCCC(=O)Nc2ccccn2)c2ccc3c(c2)OCCO3)cc1 (centres unmarked)" result=-3.99%
compound="O=C(c1ccc(N2CCOCC2)c([N+](=O)[O-])c1)N1CCCC(C(F)(F)F)C1 (centres unmarked)" result=2.23%
compound=COc1ccc(-c2c(NC(=O)c3ccco3)oc3ccc(Cl)cc3c2=O)cc1 result=19.7%
compound=Cc1cc(C(=O)N2CCN(c3ccc([N+](=O)[O-])cc3)CC2)no1 result=-70.6%

// moving on: another record for hERG current change (%, negative = inhibition) at 10uM
Please fill in: hERG current change (%, negative = inhibition) at 10uM reported for O=C(c1cncc(Br)c1)N1CCN(c2ccc([N+](=O)[O-])cc2)CC1 = -77%

* * *

# TESTED SYSTEM: human ether-à-go-go-related gene (hERG) potassium channel (human);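 also: peak tail current of the secondary pulse compared with the same well before compound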
# PROCEDURE DETAILS: primary screen, population patch clamp on CHO cells stably expressing hERG; higher = less effect of the substance
Out of some 310,000 compounds screened, about 14,000 (4.5%) showed an effect of 50% or more. The effect is printed as a negative number. Many of the other results were omitted from the sample, so strong results are more common in it than they were.
ASSAY METRIC: hERG current change (%, negative = inhibition) at 10uM (%)
Kindly answer with a numeric value in %, unit omitted.

Below, each entry is followed by its recorded hERG current change (%, negative = inhibition) at 10uM result.
compound=COC(=O)[C@@]1(Cc2ccc(F)cc2)[C@H]2c3cc(C(=O)N4CCCC4)n(CCO)c3C[C@H]2CN1C(=O)c1ccccc1 result=-51.4
compound=CCOC(=O)c1cnc(SCC(=O)Nc2ccc(NC(C)=O)c(OC)c2)nc1N result=2.44
compound=COC(=O)Cn1c(C(=O)N2CCCC2)cc2c1C[C@H]1CN(C(=O)c3ccccc3)[C@@](Cc3ccc(F)cc3)(C(=O)OC)[C@@H]21 result=-67.4
compound=CCN(Cc1ccccc1)C(=O)C1CCN(Cc2sccc2C)CC1.O=C(O)C(=O)O result=-44.3
compound=COc1ccc(C(=O)COC(=O)CCn2nnc(-c3cccs3)n2)cc1 result=10.6
compound=Cc1cc(NC(=O)Cn2nnc(-c3ccccc3N)n2)no1 result=11.8

Please fill in: hERG current change (%, negative = inhibition) at 10uM reported for CCCCN(Cc1ccccc1)C(=O)C1CCN(Cc2sccc2C)CC1.O=C(O)C(=O)O = -68.3

Please fill in: hERG current change (%, negative = inhibition) at 10uM reported for COC(=O)c1sc2nc(SCC(=O)N(C)c3ccccc3)n(N)c(=O)c2c1C = 27.4

Please fill in: hERG current change (%, negative = inhibition) at 10uM reported for COC(=O)[C@@]1(Cc2ccc(F)cc2)[C@H]2c3cc(C(=O)N4CCCC4)n(Cc4ccc(C(F)(F)F)nc4)c3C[C@H]2CN1C(=O)c1ccccc1 = -8.27

Please fill in: hERG current change (%, negative = inhibition) at 10uM reported for CC1CCCN(C(=O)C2CCN(CCCc3ccccc3)CC2)C1.O=C(O)C(=O)O (stereo not shown) = -47.5

Please fill in: hERG current change (%, negative = inhibition) at 10uM reported for C[Se]C[C@@H](N)C(=O)O.Cl = 12.3

Recorded values, source paper PMC4336329.
